Test system: MV-4-11 cells (human acute myelogenous leukemia cell line carrying MLL-AF4 mutation)
experiment summary: Cell proliferation assay, MV-4-11 (CellTiter-Glo)
Assay type: cell-based
reported conditions: Homo sapiens, MV4-11, 72 h, MV-4-11 cells, 3 days treatment, CellTiter-Glo; read-out: GI50
metric name: GI50 (µM)
Could you give me the number in µM? Just the number is fine.

Exercise: Recorded GI50 for `CCN(C(=O)c1cc(F)ccc1Oc1nncnc1N1CC2(CCN(CC3CCN(c4cccc(N)n4)CC3)CC2)C1)C(C)C` , please?
Solution: 0.027

Exercise: Recorded GI50 for `CCN(C(=O)c1cc(F)ccc1Oc1nncnc1N1CC2(CCN(CC3CCN(c4ccc(C#N)nc4)CC3)CC2)C1)C(C)C` , please?
Solution: 0.006

Exercise: Recorded GI50 for `CCN(C(=O)c1cc(F)ccc1Oc1nnc(NC)nc1N1CC2(CCN(Cc3ccc4c(cc(C#N)n4CCO)c3C)CC2)C1)C(C)C` , please?
Solution: 0.048

* * *

assayed system: Recombinant human Menin protein (2-610) / MLL polypeptide binding (Homo sapiens (Human))
Sequence (O00255 2-610): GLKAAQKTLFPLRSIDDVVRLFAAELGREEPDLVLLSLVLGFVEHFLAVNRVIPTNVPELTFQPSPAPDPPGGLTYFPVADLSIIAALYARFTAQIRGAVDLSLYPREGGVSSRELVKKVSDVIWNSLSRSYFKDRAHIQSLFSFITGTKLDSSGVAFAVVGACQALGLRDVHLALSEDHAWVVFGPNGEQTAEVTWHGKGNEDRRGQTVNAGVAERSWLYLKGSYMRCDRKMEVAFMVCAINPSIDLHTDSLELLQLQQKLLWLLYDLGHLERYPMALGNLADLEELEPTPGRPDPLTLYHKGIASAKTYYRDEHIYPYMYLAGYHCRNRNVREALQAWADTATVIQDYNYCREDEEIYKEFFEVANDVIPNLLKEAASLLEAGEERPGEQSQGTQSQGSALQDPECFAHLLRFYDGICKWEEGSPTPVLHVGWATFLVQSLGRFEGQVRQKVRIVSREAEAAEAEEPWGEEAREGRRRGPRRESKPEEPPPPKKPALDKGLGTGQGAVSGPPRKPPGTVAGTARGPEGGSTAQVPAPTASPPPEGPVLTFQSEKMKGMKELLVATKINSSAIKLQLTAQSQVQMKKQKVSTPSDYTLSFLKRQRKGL
experiment summary: Menin and MLL protein binding at a molecular level (fluorescence polarization method)
reported conditions: inhibition of Menin / MLL polypeptide binding
Grouping key: IC50. Bins: bottom end (below 0.005 µM), midrange (0.005 µM to below 0.06 µM), top end (0.06 µM or more)

Exercise: Band assignment needed for CCN(C(=O)c1cc(F)ccc1Oc1nncnc1N1CC2(CCN(CC3(NCCOC)CC3)CC2)C1)C(C)C [Compound 53] please.
Solution: top end

Exercise: Band assignment needed for CCN(C(=O)c1cc(F)ccc1Oc1nncnc1N1CC2(CCN(CC3CCN(C(=O)NC4CC4)CC3)CC2)C1)C(C)C [Compound 26] please.
Solution: bottom end

Exercise: Band assignment needed for CCN(C(=O)c1cc(F)ccc1Oc1nncnc1N1CC2(CCN(CC3CCN(c4ccc5ncnn5c4)CC3)CC2)C1)C(C)C [Compound 56] please.
Solution: midrange

Exercise: Band assignment needed for COc1cc(F)ccc1Oc1nncnc1N1CC2(CCN(Cc3ccc4c(cc(C#N)n4CCO)c3C)CC2)C1 [Compound 157] please.
Solution: top end

Exercise: Band assignment needed for CCN(C(=O)c1cc(F)ccc1Oc1nncnc1N1CC2(CCN(CC3CCN(c4ncccc4C(N)=O)CC3)CC2)C1)C(C)C [Compound 54] please.
Solution: midrange

Exercise: Band assignment needed for CCN(C(=O)c1cc(F)ccc1Oc1nncnc1N1CC2(CCN(CC3CCN(c4ccn5ncnc5c4)CC3)CC2)C1)C(C)C [Compound 55] please.
Solution: bottom end

Exercise: Band assignment needed for C=CC(=O)N1CCC(CN2CCC3(CC2)CN(c2ncnnc2Oc2ccc(F)cc2C(=O)N(CC)C(C)C)C3)CC1 [Compound 20] please.
Solution: top end

Exercise: Band assignment needed for CCN(C(=O)c1cc(F)ccc1Oc1nncnc1N1CC(C2(N(C)Cc3ccc4c(cc(C#N)n4CCO)c3C)CC2)C1)C(C)C [Compound 153] please.
Solution: midrange

Exercise: Band assignment needed for CCN(C(=O)c1cc(F)ccc1Oc1nncnc1N1CCC(C2(N(C)Cc3ccc4[nH]c(C#N)cc4c3C)CC2)C1)C(C)C (stereo not drawn) [Compound 142] please.
Solution: top end

Exercise: Band assignment needed for CCN(C(=O)c1cc(F)ccc1Oc1nncnc1N1CC2(CCN(CC3CCN(c4ccn5nccc5n4)CC3)CC2)C1)C(C)C [Compound 82] please.
Solution: bottom end

Exercise: Band assignment needed for CCN(C(=O)c1cc(F)ccc1Oc1nncnc1N1CC2(CCN(CC3CCC(n4ccccc4=O)CC3)CC2)C1)C(C)C (stereo not drawn) [Compound 122] please.
Solution: top end

Exercise: Band assignment needed for CCN(C(=O)c1cc(F)ccc1Oc1nncnc1N1CC2(CCN(CC3CCN(C(=O)NC(C)(C)C)CC3)CC2)C1)C(C)C [Compound 30] please.
Solution: bottom end

Exercise: Band assignment needed for CCNC(=O)c1cc(F)ccc1Oc1nncnc1N1CC2(CCN(CC3CCN(c4cc(OC)c(OC)nn4)CC3)CC2)C1 [Compound 178] please.
Solution: top end

Exercise: Band assignment needed for CCN(C(=O)c1cc(F)ccc1Oc1nncnc1N1CC2(CCN(CC3CCN(c4ccc(C#N)cn4)CC3)CC2)C1)C(C)C [Compound 50] please.
Solution: midrange

Exercise: Band assignment needed for CCN(C(=O)c1cc(F)ccc1Oc1nncnc1N1CC2(CCN(CC3CCN(C(=O)NC)CC3)CC2)C1)C(C)C [Compound 27] please.
Solution: midrange

Exercise: Band assignment needed for C=CC(=O)N1CC(C(=O)N2CCC(CN3CCC4(CC3)CN(c3ncnnc3Oc3ccc(F)cc3C(=O)N(CC)C(C)C)C4)CC2)C1 [Compound 18] please.
Solution: midrange

Exercise: Band assignment needed for CCN(C(=O)c1cc(F)ccc1Oc1nnc(C)nc1N1CC2(CCN(Cc3ccc4c(cc(C#N)n4CCO)c3C)CC2)C1)C(C)C [Compound 160] please.
Solution: top end

Exercise: Band assignment needed for CCN(C(=O)c1cc(F)ccc1Oc1nncnc1N1CC2(CCN(Cc3ccc(-c4ccccn4)cc3)CC2)C1)C(C)C [Compound 124] please.
Solution: top end

Exercise: Band assignment needed for CCN(C(=O)c1cc(F)ccc1Oc1nncnc1N1CC2(CCN(CC3CCN(C(=O)NC4CCC4)CC3)CC2)C1)C(C)C [Compound 32] please.
Solution: bottom end

Exercise: Band assignment needed for CCN(C(=O)c1cc(F)ccc1Oc1nncnc1N1CC2(CCN(Cc3ccc4c(cc(C(=O)O)n4CCO)c3C)CC2)C1)C(C)C [Compound 159] please.
Solution: top end

Exercise: Band assignment needed for CCN(C(=O)c1cc(F)ccc1Oc1nncnc1N1CC(C2(N(Cc3ccc4[nH]c(C#N)cc4c3C)C(C)C)CC2)C1)C(C)C [Compound 141] please.
Solution: top end

Exercise: Band assignment needed for CCN(C(=O)c1cc(F)ccc1Oc1nncnc1N1CC2(CCN(CC3CCN(c4ccc(N)nn4)CC3)CC2)C1)C(C)C [Compound 87] please.
Solution: midrange

Exercise: Band assignment needed for C=CC(=O)Nc1ccc(N2CC3(CCC(CN4CCC5(CC4)CN(c4ncnnc4Oc4ccc(F)cc4C(=O)N(CC)C(C)C)C5)CC3)C2)cc1 [Compound 180] please.
Solution: bottom end

Exercise: Band assignment needed for CCN(C(=O)c1cc(F)ccc1Oc1nncnc1N1CC2(CCN(CC3CCN(C(=O)c4ccccn4)CC3)CC2)C1)C(C)C [Compound 15] please.
Solution: midrange

Exercise: Band assignment needed for CCN(C(=O)c1cc(F)ccc1Oc1nncnc1N1CC2(CCN(CC3CCN(c4ccc(C#N)cn4)CC3)CC2)C1)C1CC1 [Compound 116] please.
Solution: midrange

Exercise: Band assignment needed for CCN(C(=O)c1cc(F)ccc1Oc1nncnc1N1CC2(CCN(CC3CCC(c4ccccn4)CC3)CC2)C1)C(C)C (stereo not drawn) [Compound 135] please.
Solution: midrange

Exercise: Band assignment needed for CCN(C(=O)c1cc(F)ccc1Oc1nncnc1N1CC2(CCN(CC3CCN(C(=O)C4CC(C)(C)C4)CC3)CC2)C1)C(C)C [Compound 4] please.
Solution: bottom end
